Recorded measurements of inhibition, one per entry
- target_or_test_system: Huntingtin (Homo sapiens) (UniProt P42858)
- Sequence (P42858 whole entry, looked up, stated change not applied): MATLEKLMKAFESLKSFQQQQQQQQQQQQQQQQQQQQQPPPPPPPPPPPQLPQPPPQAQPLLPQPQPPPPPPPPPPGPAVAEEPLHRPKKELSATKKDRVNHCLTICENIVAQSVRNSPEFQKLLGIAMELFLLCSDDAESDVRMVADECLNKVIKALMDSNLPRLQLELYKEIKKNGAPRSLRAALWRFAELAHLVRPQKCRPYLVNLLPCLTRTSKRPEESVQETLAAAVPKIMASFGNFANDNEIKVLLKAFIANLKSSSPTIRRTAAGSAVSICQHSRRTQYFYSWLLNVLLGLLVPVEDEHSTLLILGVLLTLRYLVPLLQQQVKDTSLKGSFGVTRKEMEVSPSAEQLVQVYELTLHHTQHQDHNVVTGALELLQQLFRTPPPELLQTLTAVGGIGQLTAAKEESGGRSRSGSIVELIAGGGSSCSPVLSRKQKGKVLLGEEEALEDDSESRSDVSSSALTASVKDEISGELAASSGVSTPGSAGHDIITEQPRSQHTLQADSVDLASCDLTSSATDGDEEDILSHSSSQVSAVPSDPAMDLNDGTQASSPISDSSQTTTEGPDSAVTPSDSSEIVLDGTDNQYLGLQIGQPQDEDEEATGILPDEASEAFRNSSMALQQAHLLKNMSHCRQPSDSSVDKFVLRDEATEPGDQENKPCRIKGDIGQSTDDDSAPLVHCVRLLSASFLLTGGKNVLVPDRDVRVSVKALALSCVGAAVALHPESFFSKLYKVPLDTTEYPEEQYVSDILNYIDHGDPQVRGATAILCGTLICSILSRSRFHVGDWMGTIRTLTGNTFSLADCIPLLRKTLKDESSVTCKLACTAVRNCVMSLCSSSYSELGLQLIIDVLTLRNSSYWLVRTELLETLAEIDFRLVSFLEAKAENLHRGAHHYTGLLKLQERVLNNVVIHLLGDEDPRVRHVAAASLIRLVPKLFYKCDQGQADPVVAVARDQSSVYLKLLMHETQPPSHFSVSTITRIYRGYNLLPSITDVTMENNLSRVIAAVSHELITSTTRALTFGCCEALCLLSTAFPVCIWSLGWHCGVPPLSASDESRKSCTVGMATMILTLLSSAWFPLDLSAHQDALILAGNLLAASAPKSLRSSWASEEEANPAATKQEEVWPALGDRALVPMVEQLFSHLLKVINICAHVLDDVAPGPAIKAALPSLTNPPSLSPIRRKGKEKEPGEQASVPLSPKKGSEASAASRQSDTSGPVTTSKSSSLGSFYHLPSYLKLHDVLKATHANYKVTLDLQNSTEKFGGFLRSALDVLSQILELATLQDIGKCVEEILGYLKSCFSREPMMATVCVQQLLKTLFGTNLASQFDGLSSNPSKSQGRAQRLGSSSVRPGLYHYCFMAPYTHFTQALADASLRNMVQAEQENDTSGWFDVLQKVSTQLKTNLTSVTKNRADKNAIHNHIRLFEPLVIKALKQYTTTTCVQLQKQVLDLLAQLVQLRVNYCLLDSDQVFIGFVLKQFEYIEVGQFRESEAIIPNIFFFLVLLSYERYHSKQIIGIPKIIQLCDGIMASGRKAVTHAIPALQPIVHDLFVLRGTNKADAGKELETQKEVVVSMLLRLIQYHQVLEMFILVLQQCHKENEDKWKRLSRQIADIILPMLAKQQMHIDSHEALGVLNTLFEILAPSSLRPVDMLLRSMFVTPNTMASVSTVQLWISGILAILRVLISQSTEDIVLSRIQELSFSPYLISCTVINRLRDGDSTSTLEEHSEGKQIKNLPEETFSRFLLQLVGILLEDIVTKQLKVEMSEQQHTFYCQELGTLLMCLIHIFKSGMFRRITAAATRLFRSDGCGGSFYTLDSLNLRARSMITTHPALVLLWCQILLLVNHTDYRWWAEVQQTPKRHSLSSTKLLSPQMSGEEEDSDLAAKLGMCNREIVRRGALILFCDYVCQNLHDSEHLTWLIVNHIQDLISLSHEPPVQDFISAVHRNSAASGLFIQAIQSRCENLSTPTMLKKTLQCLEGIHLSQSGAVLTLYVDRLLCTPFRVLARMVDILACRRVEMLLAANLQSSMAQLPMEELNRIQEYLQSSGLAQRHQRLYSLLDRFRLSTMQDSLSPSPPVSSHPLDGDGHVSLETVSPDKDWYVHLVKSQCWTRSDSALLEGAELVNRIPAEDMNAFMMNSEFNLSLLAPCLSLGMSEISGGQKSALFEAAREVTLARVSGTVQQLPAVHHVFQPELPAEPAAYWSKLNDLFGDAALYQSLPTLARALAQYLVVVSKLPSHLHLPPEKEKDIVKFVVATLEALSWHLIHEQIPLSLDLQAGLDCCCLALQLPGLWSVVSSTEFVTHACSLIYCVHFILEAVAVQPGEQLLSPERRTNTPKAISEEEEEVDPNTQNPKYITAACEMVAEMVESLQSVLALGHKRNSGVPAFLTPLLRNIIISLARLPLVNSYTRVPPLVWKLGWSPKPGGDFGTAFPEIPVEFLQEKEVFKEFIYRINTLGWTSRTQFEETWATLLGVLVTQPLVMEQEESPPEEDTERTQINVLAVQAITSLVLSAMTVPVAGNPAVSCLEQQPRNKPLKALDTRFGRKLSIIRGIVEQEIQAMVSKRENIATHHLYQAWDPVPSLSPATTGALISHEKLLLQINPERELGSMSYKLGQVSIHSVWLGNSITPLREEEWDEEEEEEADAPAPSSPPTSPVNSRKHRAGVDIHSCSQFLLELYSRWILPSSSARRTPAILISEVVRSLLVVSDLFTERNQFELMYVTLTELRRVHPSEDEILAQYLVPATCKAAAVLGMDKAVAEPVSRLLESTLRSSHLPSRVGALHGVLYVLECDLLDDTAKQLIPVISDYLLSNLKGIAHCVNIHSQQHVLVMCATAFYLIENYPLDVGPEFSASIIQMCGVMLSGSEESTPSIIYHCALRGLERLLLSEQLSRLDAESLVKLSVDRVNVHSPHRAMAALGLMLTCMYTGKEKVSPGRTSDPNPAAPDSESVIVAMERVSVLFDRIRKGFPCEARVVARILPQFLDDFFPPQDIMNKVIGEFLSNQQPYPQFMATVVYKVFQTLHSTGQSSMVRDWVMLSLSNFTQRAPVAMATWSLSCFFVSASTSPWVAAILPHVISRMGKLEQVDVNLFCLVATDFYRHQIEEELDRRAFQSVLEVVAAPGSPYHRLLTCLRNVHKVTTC
- experimental_details: mutant huntingtin-calmodulin interaction inhibitors – biochemical, AlphaScreen, primary screen (AID 1671202);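 note: 0% = both proteins with DMSO and 100% = one protein alone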
- setup_conditions: AlphaScreen His-mHTT/GST-CaM binding, luminescence; at 15 µM, stronger effect = higher value
Screen size: about 190,000 compounds; about 6,900 (3.6%) were called active. The sample as a whole holds a higher share of actives than the screen did.

compound: Cc1ccn2c(-c3csc(Nc4ccc(C(=O)O)cc4)n3)c(C)nc2c1
quantity_unit: %
inhibition: -2
//
compound: COCCN=C1Nc2ccccc2NC12CCCN(C(=O)c1cccc(Cl)c1)C2 (stereo not given)
quantity_unit: %
inhibition: 65.7
//
compound: Cc1ccccc1CNC(=O)C1(C)CCCN(C(=O)c2cccc(Cl)c2)C1 (stereo not given)
quantity_unit: %
inhibition: 19.4
//
compound: COc1cccc(CNC(=O)N2CCCC3(C2)Nc2cccnc2NC3=NC2CCCC2)c1 (stereo not given)
quantity_unit: %
inhibition: 1.31
//
compound: CCOc1ccccc1C1CC(c2ccc(Cl)cc2)Nc2nc(N)nn21 (stereo not given)
quantity_unit: %
inhibition: 54.2
//
compound: CCOc1ccc(CC(=O)N2CCCC3(C2)Nc2cccnc2NC3=NC2CCCC2)cc1 (stereo not given)
quantity_unit: %
inhibition: 11.4
//
compound: Cc1cc(C)n(CC(=O)N2CCCC3(C2)Nc2cccnc2NC3=NC2CCCC2)n1 (stereo not given)
quantity_unit: %
inhibition: -1.34
//
compound: O=C(Nc1ccc(NC(=O)c2ccc([N+](=O)[O-])cc2Cl)cc1)c1ccco1
quantity_unit: %
inhibition: -2.2
//
compound: COc1ccc(C2CC(c3ccc(C)cc3)Nc3nc(N)nn32)cc1 (stereo not given)
quantity_unit: %
inhibition: 11.1
//
compound: COc1cccc(C2CC(c3cccc(Cl)c3)n3nc(N)nc3N2)c1 (stereo not given)
quantity_unit: %
inhibition: 30.3

###

- target_or_test_system: Huntingtin (Homo sapiens)
- experimental_details: mutant huntingtin-calmodulin interaction inhibitors – biochemical, AlphaScreen, primary screen (AID 1671202);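 note: 0% = both proteins with DMSO and 100% = one protein alone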
- setup_conditions: AlphaScreen His-mHTT/GST-CaM binding, luminescence; at 15 µM
Screen size: about 190,000 compounds; about 6,900 (3.6%) were called active. No stated cut-off is given here; in the data, active means inhibition above about 50%; inactive means the rest. The full list was thinned out, with actives kept by preference.
Labels: T for active, F for inactive

compound: COc1ccc(C2=NOC(C(=O)N3CCN(c4ccccc4)CC3)C2)cc1 (stereo unspecified)
class_assignment: F

compound: CCOC(=O)N1CCN(C(=O)C2CC(c3ccc(F)cc3)=NO2)CC1 (stereo unspecified)
class_assignment: T

compound: CN1CCc2c(n(-c3ccccc3)c3ccccc23)C1=O
class_assignment: T

compound: CCc1ccc(/C=C2\C(=O)Nc3ccc(F)cc32)cc1
class_assignment: T

compound: CC(=O)C1=C(O)C(=O)N(c2nccs2)C1c1ccc([N+](=O)[O-])cc1 (stereo unspecified)
class_assignment: F

compound: O=[N+]([O-])c1ccc(CN2CC(N3CC=CC3)CS2(=O)=O)cc1 (stereo unspecified)
class_assignment: F

compound: Cc1ccnc(NC(c2ccc(O)cc2)c2ccc3ccc(C)nc3c2O)c1 (stereo unspecified)
class_assignment: T

compound: Cc1ccc2c(c1)C(=O)N1CCCCC1C(=O)N2CC(=O)NCCN1CCCCCC1 (stereo unspecified)
class_assignment: T

compound: O=S1(=O)CC(N2CCC(Cc3ccccc3)CC2)CN1Cc1ccccc1 (stereo unspecified)
class_assignment: F

compound: Cc1cc(C)nc(NC(=O)c2cccc(F)c2)c1
class_assignment: F

compound: COc1ccc(/C=C2\C(=O)Nc3ccc(F)cc32)cc1OC
class_assignment: F

###

Recorded measurements of inhibition, one per entry
- target_or_test_system: Huntingtin (Homo sapiens) (UniProt P42858)
- experimental_details: mutant huntingtin-calmodulin interaction inhibitors – biochemical, AlphaScreen, primary screen (AID 1671202);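 note: 0% = both proteins with DMSO and 100% = one protein alone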
- setup_conditions: AlphaScreen His-mHTT/GST-CaM binding, luminescence; at 15 µM, stronger effect = higher value
The campaign covered roughly 190,000 compounds. About 6,900 (3.6%) were called active. The full list was thinned out, with actives kept by preference.

compound: Cn1nc(C(=O)NCc2ccccc2)c2c1CCN(C(=O)c1cccc(F)c1)C2
inhibition / %: 64.8
--
compound: COc1cc(OC)cc(C(=O)N2CCc3c(c(C(=O)NCc4cccc(C)c4)nn3C)C2)c1
inhibition / %: 40.8
--
compound: Cc1ccnc(N2CCCC(C(=O)NCCc3ccc(Cl)cc3)C2)n1 (stereo not given)
inhibition / %: 7.6
--
compound: CCOc1ccc(CNC(=O)C2CCCN(c3ccc(N4CCOCC4)nn3)C2)cc1 (stereo not given)
inhibition / %: -1.05
--
compound: NCCN1C(=O)c2[nH]nc(-c3ccccc3)c2C1c1ccccc1 (stereo not given)
inhibition / %: 9
--
compound: Cc1cccc(C(=O)N2CCc3c(c(-c4nc(Cc5ccccc5)no4)nn3C)C2)c1
inhibition / %: 7.62
--
compound: O=[N+]([O-])c1c(Cl)cc(Cl)c2nsnc12
inhibition / %: 88
--
compound: O=C(NCCC1CCN(C(=O)c2ccc(F)cc2)CC1)c1ccc(F)cc1
inhibition / %: -1.87
--
compound: COc1ccc(CC(=O)N2CCc3c(c(C(=O)NCc4cccc(C)c4)nn3C)C2)cc1
inhibition / %: 40.5
--
compound: CCCC(=O)N1CCc2c(c(C(=O)NCc3cccc(C)c3)nn2C)C1
inhibition / %: 35.7

###

- target_or_test_system: Huntingtin (Homo sapiens) (UniProt P42858)
- experimental_details: mutant huntingtin-calmodulin interaction inhibitors – biochemical, AlphaScreen, primary screen (AID 1671202);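 note: 0% = both proteins with DMSO and 100% = one protein alone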
- setup_conditions: AlphaScreen His-mHTT/GST-CaM binding, luminescence; at 15 µM
Out of some 190,000 compounds screened, about 6,900 (3.6%) were called active. No stated cut-off is given here; in the data, active means inhibition above about 50%; inactive means the rest. This is one part of a sample in which actives are shown more often than they occur.
Labels: active, inactive

compound: Oc1c(C(Nc2ccccn2)c2ccc(OC(F)F)cc2)ccc2cccnc12 (stereo unspecified)
class_assignment: active

compound: Oc1c(C(Nc2ccccn2)c2ccncc2)ccc2cccnc12 (stereo unspecified)
class_assignment: active

compound: CCN(CC)CCNC(=O)c1cn(C2CCCCC2)c(=O)c2c1c1ccccc1n2C
class_assignment: inactive

compound: CCNC(=O)c1c(O)c2cccc3c2n(c1=O)CC3
class_assignment: inactive

compound: Oc1c(C(Nc2ccccn2)c2cccnc2)ccc2cccnc12 (stereo unspecified)
class_assignment: active

compound: Cc1cccc(N2CCC(C(=O)NCc3ccccc3F)C2=O)c1C (stereo unspecified)
class_assignment: inactive

###

- target_or_test_system: Huntingtin (Homo sapiens) (UniProt P42858)
- experimental_details: mutant huntingtin-calmodulin interaction inhibitors – biochemical, AlphaScreen, primary screen (AID 1671202);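 note: 0% = both proteins with DMSO and 100% = one protein alone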
- setup_conditions: AlphaScreen His-mHTT/GST-CaM binding, luminescence; at 15 µM
Among all 190,000 compounds or so, about 6,900 (3.6%) were called active. No stated cut-off is given here; in the data, active means inhibition above about 50%; inactive means the rest. The sample as a whole holds a higher share of actives than the screen did.
Labels: Yes = active, No = inactive

molecule: COc1ccc(C(=O)CSc2nc(N)cc(=O)[nH]2)cc1[N+](=O)[O-]
class_assignment: No

molecule: Cc1ccc(NC(=O)CSc2cccc3cccnc23)c(C)c1
class_assignment: Yes

molecule: COc1ccccc1-n1c(C)nc2cc(C(=O)NCc3cccnc3)ccc21
class_assignment: No

molecule: COc1ccccc1C(=O)N1CCCC2(C1)Nc1cccnc1NC2=NCc1ccccc1 (stereo not drawn)
class_assignment: No

molecule: COc1ccc(C)cc1NC(=O)N1CCC2(CC1)Nc1cc(F)ccc1-n1cccc12
class_assignment: Yes

molecule: O=C(C1CCCC1)N1CCN(Cc2noc(-c3cccc4ccccc34)n2)CC1
class_assignment: No

molecule: O=C(NCc1ccco1)N1CCC2(CC1)Nc1ccccc1-n1cccc12
class_assignment: Yes

molecule: CCOCCCNC(=O)N1CCc2cn(C)c3cccc(c23)C1
class_assignment: No

molecule: CCOc1ccc(-n2c(C)nc3cc(C(=O)NCC(OCC)OCC)ccc32)cc1
class_assignment: No

molecule: Cc1ccc(C(NC(=O)Cc2ccccc2)c2ccc3cccnc3c2O)cc1 (stereo not drawn)
class_assignment: Yes

molecule: COc1cccc(NC(=O)c2cc3cc4cc(OC)ccc4nc3s2)c1
class_assignment: No

molecule: CC(C)(C)C(=O)N1CCCC2(C1)Nc1ccccc1NC2=NCc1ccccc1 (stereo not drawn)
class_assignment: Yes

molecule: O=C(Cc1ccccc1)NC(Nc1ccccc1Cl)C(Cl)(Cl)Cl (stereo not drawn)
class_assignment: No

molecule: CC1CCC2(CC1)NC(=O)N(CC(=O)NCc1ccco1)C2=O (stereo not drawn)
class_assignment: No

molecule: C=CCn1c(=O)c2cnc(-c3ccc(Cl)cc3)nc2n(C)c1=O
class_assignment: No

molecule: O=S1(=O)c2ccccc2S(=O)(=O)N1c1cc(F)ccc1F
class_assignment: No

molecule: COc1ccc(C2C=C(c3ccc(C)cc3)Nc3nnnn32)cc1 (stereo not drawn)
class_assignment: No

molecule: O=S(=O)(c1cc(Br)ccc1Br)N1CCOCC1
class_assignment: No

molecule: CCOC(CNC(=O)c1ccc2c(c1)nc(C)n2-c1cc(Cl)ccc1OC)OCC
class_assignment: Yes

molecule: CCOCCCNC(=O)N1CCC2(CC1)Nc1cc(F)ccc1-n1cccc12
class_assignment: Yes

molecule: Cc1ccccc1-n1ccn(CC(=O)NCc2ccco2)c(=O)c1=O
class_assignment: No

molecule: Cc1ccc(C)c(NC(=O)Cc2ccccc2)c1
class_assignment: No

molecule: COc1ccccc1NC(=O)N1CCC2(CC1)NC(=O)c1cc(F)ccc1N2C
class_assignment: No
